Data provenance: ChEMBL document CHEMBL4038287

In this section we review reported MIC80 values for a set of molecules.
# System: Aspergillus fumigatus
# assay.remarks: Antifungal activity against Aspergillus fumigatus isolate 7544 by micro-broth dilution method
# Assay type: functional

| chemical.string | target.or.test.system | relational.operator | MIC80 (µg/mL) |
| --- | --- | --- | --- |
| C[C@@H](c1cc(-c2ccc(C#N)cc2)no1)[C@](O)(Cn1cncn1)c1ccc(F)cc1F | Aspergillus fumigatus | = | 8 |
| Cc1ccc(-c2cc([C@H](C)[C@](O)(Cn3cncn3)c3ccc(F)cc3F)on2)cc1 | Aspergillus fumigatus | = | 8 |
| C[C@@H](c1cc(-c2ccc(F)cc2)no1)[C@](O)(Cn1cncn1)c1cc(F)ccc1F | Aspergillus fumigatus | > | 8 |
| C[C@@H](c1cc(-c2c(F)cccc2F)no1)[C@](O)(Cn1cncn1)c1ccc(F)cc1F | Aspergillus fumigatus | = | 2 |
| C[C@@H](c1cc(-c2ccc(F)c(F)c2)no1)[C@](O)(Cn1cncn1)c1cc(F)ccc1F | Aspergillus fumigatus | > | 8 |
